- System: coronary blood flow
- assay-summary: Effect on coronary blood flow
- Assay type: in vivo, Adult mongrel dogs
- assay-context: dose required to increase the coronary blood flow by a half of the effects of nifedipine; injected into the coronary artery; anesthetized dogs
Counter-ions that a name gives are not always drawn.
property-name: ED50 (µg)
Form entry: value (µg) — number only.

For the compound shown here, CCOC(=O)C1=C(C)Nc2ncc(CN(CC)CC)n2C1c1cccc([N+](=O)[O-])c1 (centres unmarked) [Compound B, hydrochloride] , give the reported ED50.
3

For CCN(CC)Cc1cnc2n1C(c1cccc([N+](=O)[O-])c1)C(C(=O)OCCOC)=C(C)N2 (centres unmarked) , what is its reported ED50?
5

Which ED50 is listed for CCOC(=O)C1=C(C)Nc2ncc(CN(C)Cc3ccccc3)n2C1c1cccc([N+](=O)[O-])c1.Cl.Cl.O (centres unmarked) ?
10

Entry CCN(CC)Cc1cnc2n1C(c1ccccc1C(F)(F)F)C(C(=O)OC)=C(C)N2 (centres unmarked) : reported ED50 = ?
5

For the compound shown here, CCOC(=O)C1=C(C)Nc2ncc(CN(CC)CC)n2C1c1ccccc1[N+](=O)[O-].Cl.Cl.O (centres unmarked) , give the reported ED50.
10
